target: B1R receptor of the rat (bradykinin 1 receptor) (Rattus norvegicus); construct: host or cells: CHO K1 cells (rB1R cells); test: FLIPR Ca2+ assay (Fluo-4) on CHO K1 cells stably transfected with the B1R gene of the rat; % activation and % inhibition at 10 μM; assay type: cell-based; settings: CHO-K1, test substance 10 μM; CHO K1 rB1R cells; Ca2+ inflow after 100 nM Des-Arg9-bradykinin; read-out: B1R antagonism, rat [10 μM] % inhibition
Sequence (P97583 whole entry): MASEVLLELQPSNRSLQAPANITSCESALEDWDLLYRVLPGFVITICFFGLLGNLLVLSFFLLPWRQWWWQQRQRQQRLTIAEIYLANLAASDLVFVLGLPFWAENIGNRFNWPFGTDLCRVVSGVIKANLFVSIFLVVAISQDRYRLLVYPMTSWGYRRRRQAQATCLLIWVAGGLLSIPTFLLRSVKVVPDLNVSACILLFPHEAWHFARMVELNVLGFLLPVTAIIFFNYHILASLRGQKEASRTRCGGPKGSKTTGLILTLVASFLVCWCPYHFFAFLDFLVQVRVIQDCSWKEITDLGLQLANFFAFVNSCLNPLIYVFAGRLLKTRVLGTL
The entries below are paired with their reported inhibition at 10 µM.
parameter: inhibition at 10 µM

[
  {
    "compound": "CN(CCOCC(=O)N1CCC(O)(c2ccccn2)CC1)S(=O)(=O)c1c(Cl)cc(Cl)cc1Cl",
    "parameter": "inhibition at 10 µM",
    "result": "93.9%"
  },
  {
    "compound": "O=C(COCC1CCN(S(=O)(=O)c2c(Cl)cc(Cl)cc2Cl)C1)N1CCC(O)(Cc2ccccc2)CC1 (stereo not drawn)",
    "parameter": "inhibition at 10 µM",
    "result": "85.1%"
  },
  {
    "compound": "COc1cc(C)c(S(=O)(=O)N2CCCCC2COCC(=O)N2CCC(O)(c3cccs3)CC2)c(C)c1 (stereo not drawn)",
    "parameter": "inhibition at 10 µM",
    "result": "101%"
  },
  {
    "compound": "O=C(COCC1CCCN1S(=O)(=O)c1c(Cl)cc(C(F)(F)F)cc1Cl)N1CCC(O)(Cc2ccccc2)CC1 (stereo not drawn)",
    "parameter": "inhibition at 10 µM",
    "result": "79.4%"
  },
  {
    "compound": "O=C(COCC1CCCN1S(=O)(=O)c1c(Cl)cc(C(F)(F)F)cc1Cl)N1CCC(O)(c2ccc(Cl)cc2)CC1 (stereo not drawn)",
    "parameter": "inhibition at 10 µM",
    "result": "104%"
  },
  {
    "compound": "O=C(COCC1CCCCN1S(=O)(=O)c1c(Cl)cccc1Cl)N1CCC(O)(c2ccc(Cl)c(C(F)(F)F)c2)CC1 (stereo not drawn)",
    "parameter": "inhibition at 10 µM",
    "result": "99.9%"
  }
]

###

biological target: B1R receptor of the rat (bradykinin 1 receptor) (Rattus norvegicus); construct: host or cells: CHO K1 cells (rB1R cells); assay: FLIPR Ca2+ assay (Fluo-4) on CHO K1 cells stably transfected with the B1R gene of the rat; % activation and % inhibition at 10 μM; type: cell-based; conditions: CHO-K1, test substance 10 μM; CHO K1 rB1R cells; Ca2+ inflow after 100 nM Des-Arg9-bradykinin; read-out: B1R antagonism, rat [10 μM] % inhibition

[
  {
    "compound": "COc1cc(C)c(S(=O)(=O)N2CCC(OCC(=O)N3CCC(O)(c4ccccn4)CC3)C2)c(C)c1 (stereo not drawn) [Example 21]",
    "units_symbol": "%",
    "inhibition at 10 µM": 71.1
  },
  {
    "compound": "COc1cc(C)c(S(=O)(=O)N2CCCCC2COCC(=O)N2CCC(O)(Cc3ccccc3)CC2)c(C)c1 (stereo not drawn) [Example 245]",
    "units_symbol": "%",
    "inhibition at 10 µM": 97.7
  },
  {
    "compound": "O=C(COCC1CCCN1S(=O)(=O)c1c(Cl)cccc1Cl)N1CCC(O)(c2cccc(C(F)(F)F)c2)CC1 (stereo not drawn) [Example 222]",
    "units_symbol": "%",
    "inhibition at 10 µM": 103
  },
  {
    "compound": "COc1cc(C)c(S(=O)(=O)N(C)CCOCC(=O)N2CCC(O)(c3cccc(C(F)(F)F)c3)CC2)c(C)c1 [Example 132]",
    "units_symbol": "%",
    "inhibition at 10 µM": 99.1
  },
  {
    "compound": "Cc1cc(S(=O)(=O)N(C)CCOCC(=O)N2CCC(O)(c3cccnc3)CC2)c(C)cc1Cl [Example 149]",
    "units_symbol": "%",
    "inhibition at 10 µM": 100
  },
  {
    "compound": "COc1cc(C)c(S(=O)(=O)N(C)CCOCCC(=O)N2CCC(O)(c3ccccc3)CC2)c(C)c1 [Example 276]",
    "units_symbol": "%",
    "inhibition at 10 µM": 88.3
  },
  {
    "compound": "O=C(COCC1CCCCN1S(=O)(=O)c1ccccc1C(F)(F)F)N1CCC(O)(Cc2ccccc2)CC1 (stereo not drawn) [Example 176]",
    "units_symbol": "%",
    "inhibition at 10 µM": 102
  },
  {
    "compound": "COc1cc(C)c(S(=O)(=O)N2Cc3ccccc3C[C@H]2COCC(=O)N2CCC(O)(c3cccnc3)CC2)c(C)c1 [Example 128]",
    "units_symbol": "%",
    "inhibition at 10 µM": 98.8
  },
  {
    "compound": "Cc1cc(S(=O)(=O)N2CCCCC2COCC(=O)N2CCC(O)(Cc3ccccc3)CC2)c(C)cc1Cl (stereo not drawn) [Example 159]",
    "units_symbol": "%",
    "inhibition at 10 µM": 97
  },
  {
    "compound": "COc1cc(C)c(S(=O)(=O)N(CCOCC(=O)N2CCC(O)(c3ccc(Cl)c(C(F)(F)F)c3)CC2)CC2CC2)c(C)c1C [Example 237]",
    "units_symbol": "%",
    "inhibition at 10 µM": 100
  },
  {
    "compound": "Cc1cc(S(=O)(=O)N(C)CCOCC(=O)N2CCC(O)(c3ccc(Cl)c(C(F)(F)F)c3)CC2)c(C)s1 [Example 259]",
    "units_symbol": "%",
    "inhibition at 10 µM": 93.3
  },
  {
    "compound": "COc1ccc(S(=O)(=O)N2CCCC2COCC(=O)N2CCC(O)(c3ccccn3)CC2)cc1 (stereo not drawn) [Example 40]",
    "units_symbol": "%",
    "inhibition at 10 µM": 61.3
  },
  {
    "compound": "O=C(COCC1CCCCN1S(=O)(=O)c1c(Cl)cc(C(F)(F)F)cc1Cl)N1CCC(O)(c2ccccc2)CC1 (stereo not drawn) [Example 162]",
    "units_symbol": "%",
    "inhibition at 10 µM": 105
  },
  {
    "compound": "O=C(COCC1CCc2ccccc2N1S(=O)(=O)c1ccc(Cl)c(Cl)c1)N1CCC(O)(c2ccccn2)CC1 (stereo not drawn) [Example 146]",
    "units_symbol": "%",
    "inhibition at 10 µM": 92.8
  },
  {
    "compound": "O=C(COCC1CCCN1S(=O)(=O)c1cc(Cl)sc1Cl)N1CCC(O)(c2cccs2)CC1 (stereo not drawn) [Example 266]",
    "units_symbol": "%",
    "inhibition at 10 µM": 78.6
  },
  {
    "compound": "O=C(COCC1CCCCN1S(=O)(=O)c1c(Cl)cccc1Cl)N1CCC(O)(c2cccc(C(F)(F)F)c2)CC1 (stereo not drawn) [Example 235]",
    "units_symbol": "%",
    "inhibition at 10 µM": 99.9
  },
  {
    "compound": "COc1cc(C)c(S(=O)(=O)N2CCCC2COCC(=O)N2CCC(O)(c3cccc(C(F)(F)F)c3)CC2)c(C)c1 (stereo not drawn) [Example 217]",
    "units_symbol": "%",
    "inhibition at 10 µM": 99.9
  },
  {
    "compound": "COc1cc(C)c(S(=O)(=O)N2CCC(COCC(=O)N3CCC(O)(c4ccc(Br)cc4)CC3)C2)c(C)c1 (stereo not drawn) [Example 230]",
    "units_symbol": "%",
    "inhibition at 10 µM": 100
  },
  {
    "compound": "O=C(COCC1Cc2ccccc2N1S(=O)(=O)c1ccc(Cl)cc1Cl)N1CCC(O)(c2cccnc2)CC1 (stereo not drawn) [Example 135]",
    "units_symbol": "%",
    "inhibition at 10 µM": 100
  },
  {
    "compound": "O=C(COCC1CCCCN1S(=O)(=O)c1ccccc1C(F)(F)F)N1CCC(O)(c2ccc(Cl)cc2)CC1 (stereo not drawn) [Example 173]",
    "units_symbol": "%",
    "inhibition at 10 µM": 104
  },
  {
    "compound": "O=C(COCC1CCCN(S(=O)(=O)c2c(Cl)cc(Cl)cc2Cl)C1)N1CCC(O)(c2ccccc2)CC1 (stereo not drawn) [Example 255]",
    "units_symbol": "%",
    "inhibition at 10 µM": 73.7
  }
]
